biological target: insulin receptor of isolated rat adipocytes (rat, UniProt P15127 27-1383); test: cell-based or functional assay
Sequence (P15127 27-1383): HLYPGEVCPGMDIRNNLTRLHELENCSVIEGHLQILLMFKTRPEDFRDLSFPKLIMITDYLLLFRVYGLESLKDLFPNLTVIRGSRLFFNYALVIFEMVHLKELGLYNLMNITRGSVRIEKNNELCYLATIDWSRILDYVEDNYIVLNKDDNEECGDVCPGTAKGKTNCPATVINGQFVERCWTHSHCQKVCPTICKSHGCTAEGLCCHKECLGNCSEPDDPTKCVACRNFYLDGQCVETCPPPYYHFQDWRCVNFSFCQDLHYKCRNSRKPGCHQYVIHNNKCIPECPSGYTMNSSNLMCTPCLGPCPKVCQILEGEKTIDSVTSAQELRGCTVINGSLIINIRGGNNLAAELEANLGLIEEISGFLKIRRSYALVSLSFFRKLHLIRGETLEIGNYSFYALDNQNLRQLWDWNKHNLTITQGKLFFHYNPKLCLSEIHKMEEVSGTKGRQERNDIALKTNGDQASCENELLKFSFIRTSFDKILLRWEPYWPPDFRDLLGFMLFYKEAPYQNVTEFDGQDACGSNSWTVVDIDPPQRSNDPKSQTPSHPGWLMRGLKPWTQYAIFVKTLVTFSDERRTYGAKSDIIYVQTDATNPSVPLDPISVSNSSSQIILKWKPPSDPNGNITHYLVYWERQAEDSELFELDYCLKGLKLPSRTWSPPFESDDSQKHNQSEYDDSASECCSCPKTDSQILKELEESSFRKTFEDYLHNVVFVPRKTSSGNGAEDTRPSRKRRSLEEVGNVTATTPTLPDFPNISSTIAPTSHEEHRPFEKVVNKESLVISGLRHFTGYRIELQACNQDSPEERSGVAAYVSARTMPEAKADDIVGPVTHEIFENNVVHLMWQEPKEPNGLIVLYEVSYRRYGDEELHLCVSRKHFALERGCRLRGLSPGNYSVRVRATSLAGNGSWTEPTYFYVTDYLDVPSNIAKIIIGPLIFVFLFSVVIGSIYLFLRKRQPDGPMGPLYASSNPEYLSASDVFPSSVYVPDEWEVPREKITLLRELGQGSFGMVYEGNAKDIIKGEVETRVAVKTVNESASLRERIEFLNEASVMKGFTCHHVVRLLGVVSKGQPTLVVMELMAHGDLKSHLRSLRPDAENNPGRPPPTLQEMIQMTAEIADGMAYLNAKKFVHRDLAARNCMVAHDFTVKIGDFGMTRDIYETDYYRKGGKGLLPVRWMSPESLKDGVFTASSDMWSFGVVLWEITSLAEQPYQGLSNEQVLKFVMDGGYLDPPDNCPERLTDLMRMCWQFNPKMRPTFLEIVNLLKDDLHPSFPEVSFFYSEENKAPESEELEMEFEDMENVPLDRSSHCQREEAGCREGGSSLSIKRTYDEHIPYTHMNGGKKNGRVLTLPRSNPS
quantity: Lipogenesis in rat adipocytes [Potency (%)] Mean Value

May I ask what Lipogenesis in rat adipocytes [Potency (%)] Mean Value has been recorded for A14E, A21G, A22(GQEP)12, A70K^, A71P, B25H, B29R, desB30 human insulin/(227A, 234A, 235K hIgG4-Fc(228-447)) … (other, Cys229 (EU numbering) sulphur bound to an acetyl arm of the linker; A70K N(eps) acylated by the trivalent linker 4-[bis[2-[(2-acetyl)amino]ethyl]amino]-4-oxo-butanoyl, also called Ex 5.8) chain 1: GIVEQCCTSICSLEQLENYCGGQEPGQEPGQEPGQEPGQEPGQEPGQEPGQEPGQEPGQEPGQEPGQEPKP chain 2: FVNQHLCGSHLVEALYLVCGERGFHYTPR chain 3: ASCPAPEAKGGPSVFLFPPKPKDTLMISRTPEVTCVVVDVSQEDPEVQFNWYVDGVEVHNAKTKPREEQFNSTYRVVSVLTVLHQDWLNGKEYKCKVSNKGLPSSIEKTISKAKGQPREPQVYTLPPSQEEMTKNQVSLTCLVKGFYPSDIAVEWESNGQPENNYKTTPPVLDSDGSFFLYSRLTVDKSRWQEGNVFSCSVMHEALHNHYTQKSLSLSLGK ?
5.31 % of human insulin

We now examine a further binder.
Item under review: A14E, A21G, A22(GQEP)12, A70K^, A71P, B25H, B29R, desB30 human insulin/(227A, 234A, 235K, 297E, 315Q, 384Q, des447 hIgG4-Fc(228-447)) … (other, Cys229 (EU numbering) sulphur bound to an acetyl arm of the linker; A70K N(eps) acylated by the trivalent linker 4-[bis[2-[(2-acetyl)amino]ethyl]amino]-4-oxo-butanoyl, also called Ex 5.17) chain 1: GIVEQCCTSICSLEQLENYCGGQEPGQEPGQEPGQEPGQEPGQEPGQEPGQEPGQEPGQEPGQEPGQEPKP chain 2: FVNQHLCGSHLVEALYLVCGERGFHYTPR chain 3: ASCPAPEAKGGPSVFLFPPKPKDTLMISRTPEVTCVVVDVSQEDPEVQFNWYVDGVEVHNAKTKPREEQFESTYRVVSVLTVLHQDWLQGKEYKCKVSNKGLPSSIEKTISKAKGQPREPQVYTLPPSQEEMTKNQVSLTCLVKGFYPSDIAVEWESQGQPENNYKTTPPVLDSDGSFFLYSRLTVDKSRWQEGNVFSCSVMHEALHNHYTQKSLSLSLG . Reported Lipogenesis in rat adipocytes [Potency (%)] Mean Value?
4.39 % of human insulin
